Could you please report measured fold-decrease in affinity for the items listed next?
Subject Of Test: T1, P296A
T1 construct: % monomer 92.3; also called MICA*008.mIgG2a P296A
T1 chain: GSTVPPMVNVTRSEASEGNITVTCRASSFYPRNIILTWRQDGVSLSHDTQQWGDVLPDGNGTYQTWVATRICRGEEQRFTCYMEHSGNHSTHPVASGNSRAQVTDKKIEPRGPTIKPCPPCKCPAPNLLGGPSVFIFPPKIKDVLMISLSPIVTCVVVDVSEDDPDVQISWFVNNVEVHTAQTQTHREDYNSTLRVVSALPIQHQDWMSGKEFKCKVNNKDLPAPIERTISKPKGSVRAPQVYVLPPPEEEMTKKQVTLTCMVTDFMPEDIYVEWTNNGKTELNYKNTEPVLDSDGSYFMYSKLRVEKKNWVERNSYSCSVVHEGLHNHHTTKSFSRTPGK
Experiment Description: SPR, Fab over captured MICA*008.mIgG2a Ala variant; KD relative to wild type
Field format: numeric only.

Ask | Form field: reported fold-decrease in affinity of 7D4.6 Fab (Fab, V domains shown) VH: DVQLQESGPGLVKPSQSLSLTCTVTGYSITSDYAWNWIRQFPRNKLEWMGYINYSGTTNYNPSLKSRISITRDTSKNQFFLQLISVTTEDTATYYCSYYRYDGAWFPYWGQGTLVTVSA VL: DIQMTQSPASLSASVGETVTITCRASGNIHNYLAWYQQKQGKSPQLLVYNAIMLADGVPSRFSASGSGTQYSLKINSLQPEDFGSYYCQHFWSFPLTFGAGTKVEIK
Reply | 0.7

Ask | Which measured fold-decrease in affinity value corresponds to 2E5.2.3 Fab (Fab, V domains shown) VH: QGQMQQSGAELVKPGASVKLSCKTSGFTFSDNYISWLKQKPGQSLEWIAWIYAGTGGTSYNQKFTAKAQLTVDTSSSTAYMQFSSLTTEDSAIYYCARHDYYGTSGAWFAYWGQGTLVTVSA VL: DVLMTQTPLSLPVSLGDQASLSCRSSQNIVHINGNTYLEWYLQKPGQSPKLLIYKVSNRFSGVPDRFSGSGSGTDFTLKISRVEAEDLGVYYCFQGSHVPWTFGGGTKVEIK ?
Reply | 0.6

Ask | Requested read-out: fold-decrease in affinity. Entry: 1D5 Fab (Fab, V domains shown, Expressed in E. coli as chimera of murine variable and human constant domains; not shown: human IgG1 CH1 constant domain; human kappa CL constant domain) VH: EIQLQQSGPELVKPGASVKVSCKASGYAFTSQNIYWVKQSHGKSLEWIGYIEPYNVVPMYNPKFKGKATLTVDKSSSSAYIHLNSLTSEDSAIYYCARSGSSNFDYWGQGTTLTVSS VL: EIILTQSPTTMAASPGEKITITCSASSSISSHYLHWYQQKSGFSPKLLIYRTSNLASGVPARFSGSGSGTSYSLTIGTMEAEDVATYYCQQGSSLPLTFGAGTKVEIK
Reply | 1.9

Ask | I have this binder here, 6F8.7 Fab (Fab, V domains shown) VH: DVQLQGSGPGLVKPSQSLSLTCSVTGYSITNDYYWNWIRQFPGNKLEWMGFISFGGSNNYNPSLKNRISITRDTSKNQFFLKLSSVTTEDTATYYCARYDGRGAWFAYWAQGTLVTVSA VL: DIQMTQSPASLSASVGETVTITCRASGNIHNYLAWYQQKQGKSPQLLVYDAITLADGVPSRFSGSGSGTQYSLKINSLQPEDFGNYYCQHFWSFPLTFGAGTKVEIK , and I need its recorded fold-decrease in affinity.
Reply | 1
